Data origin: patent US7928126B2

Biological target: Porcine brain tubulin protein (Sus scrofa, UniProt P02550+P02554)
Construct: 3.3 mg/ml Porcine brain tubulin protein: Cytoskeleton; purchased Cytoskeleton; host or cells: porcine brain (tissue-derived)
Sequence (P02550 whole entry): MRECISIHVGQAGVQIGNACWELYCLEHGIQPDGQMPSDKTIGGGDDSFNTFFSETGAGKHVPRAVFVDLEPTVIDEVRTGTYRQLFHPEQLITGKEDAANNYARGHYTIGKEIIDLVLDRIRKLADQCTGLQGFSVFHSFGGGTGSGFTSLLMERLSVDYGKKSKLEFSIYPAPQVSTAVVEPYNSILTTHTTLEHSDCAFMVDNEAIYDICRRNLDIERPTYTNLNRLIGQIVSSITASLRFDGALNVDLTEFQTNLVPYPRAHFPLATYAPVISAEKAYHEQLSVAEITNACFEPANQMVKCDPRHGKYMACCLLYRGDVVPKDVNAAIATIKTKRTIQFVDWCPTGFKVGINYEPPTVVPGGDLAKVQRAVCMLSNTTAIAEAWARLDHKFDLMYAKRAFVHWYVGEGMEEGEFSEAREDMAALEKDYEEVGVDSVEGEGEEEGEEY
Sequence (P02554 whole entry): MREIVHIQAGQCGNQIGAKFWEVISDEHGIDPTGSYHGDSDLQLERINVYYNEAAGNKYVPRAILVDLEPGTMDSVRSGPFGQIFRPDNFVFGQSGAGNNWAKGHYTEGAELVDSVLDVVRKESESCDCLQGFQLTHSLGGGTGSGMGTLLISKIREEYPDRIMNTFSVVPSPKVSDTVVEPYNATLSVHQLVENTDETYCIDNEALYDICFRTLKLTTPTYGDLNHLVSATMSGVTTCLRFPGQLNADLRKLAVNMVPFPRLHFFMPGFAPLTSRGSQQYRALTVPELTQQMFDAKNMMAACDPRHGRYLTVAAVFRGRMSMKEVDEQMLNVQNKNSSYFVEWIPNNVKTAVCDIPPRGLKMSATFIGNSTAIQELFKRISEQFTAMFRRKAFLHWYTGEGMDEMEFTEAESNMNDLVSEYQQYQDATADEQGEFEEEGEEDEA
Test: Tubulin polymerization assay (turbidity at 405 nm)
Assay type: biochemical
Conditions: 10 μM compound, maximum polymerization rate, 37° C.; read-out: inhibitory rate (%)
Where a name gives a salt, the structure may show the parent alone.
Assign Satisfied to entries whose inhibition at 10 µM meets or exceeds 50%; assign Not satisfied to the rest.

compound	class.label
Cc1cc(Nc2ccc(C#N)c(NCCOc3cccnc3)n2)n[nH]1 [Example 17]	Satisfied
Cc1cc(Nc2cc(C)c(C#N)c(NCCOc3ccccc3F)n2)n[nH]1 [Example 13, hydrochloride]	Satisfied
Cc1cc(Nc2cc(-c3cccnc3)c(C#N)c(NCCOc3cccc(F)c3)n2)n[nH]1 [Example 18, dihydrochloride]	Satisfied
Cc1ccc(OCCNc2nc(Nc3cc(C)[nH]n3)cc(C)c2C#N)cn1 [Example 21]	Satisfied
Cc1cc(Nc2ccc(C#N)c(NCCOc3cccnc3C)n2)n[nH]1 [Example 28, dihydrochloride]	Satisfied
COc1ccccc1OCCNc1nc(Nc2cc(C)[nH]n2)cc(C)c1C#N [Example 8]	Not satisfied
Cc1ccc(OCCNc2nc(Nc3cc(C)[nH]n3)cc(C)c2C#N)c(C)n1 [Example 23, dihydrochloride]	Satisfied
Cc1cc(Nc2cc(-c3cccnc3)c(C#N)c(NCCOc3ccccc3)n2)n[nH]1 [Example 6]	Not satisfied
